target: GABARAP, O95166; assay: median log2 fold change of GCK-ALFA target abundance (FLAG IP / Myc IP barcode read proportion) (log2 ratio); each designed protein is fused to an ALFA-tag nanobody in HEK293 cells to bring the named protein to FLAG-tagged glucokinase (GCK); Myc marks an untargeted standard; higher = target protein stabilised (more abundant); conditions: target protein: 3xFLAG-MCP-GCK-ALFA reporter; HEK293 landing pad (RPLP)
Sequence (O95166 whole entry, the tested form may be a part): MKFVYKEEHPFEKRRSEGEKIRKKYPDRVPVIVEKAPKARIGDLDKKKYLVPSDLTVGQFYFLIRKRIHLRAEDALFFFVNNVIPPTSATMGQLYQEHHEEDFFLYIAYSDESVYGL
In all, about 4,500 sequences were measured (“median log2 fold change of GCK-ALFA target abundance (FLAG IP / Myc IP barcode read proportion)”: median about 0.078, lowest 2% from about -0.6 on). Many of the other results were omitted from the sample, so the lowest values are more common in it than they were.
Rule: median log2 fold change of -0.1 or more gives true (1); anything lower gives false (0).

GBRAP_52_6083 (protein) MEKEIEETANKIYEAIKAGDKEKALELIKEAIKKFSPEEIKEMLKLTAEKVASLGDEKHELFVDILTEAEDLMIEAGISEEEALLIVGDAEAALAKAVAA | false (0)
GBRAP_166_4948 (protein) SLEEVIEETREFIRELAERMKTLNDEERLDALIEIAERLEEARKAGVSEEDLLELVREALELVKEAGGSVEQFVGALDMFVDLDEEELDKVAEIAEEVKA | true (1)
GBRAP_11_2629 (protein) KKEILKKKAELAKKLAEKVEKLLKEGVDNEELLKEIEKLLKEIAELTEKYGTEADKSLVEVAKELFEEAKKDKENKEKYLKELLAAAKVLEGDYLLEIEE | true (1)
GBRAP_160_4218 (protein) MELVKKLVEIVREEFEEALELIEGESPEERRVILDVAVGNVILESMEIEGVTDEMEETVEEMSEELAEELLEAADESPEERRELIEERVEELEKELKKLE | false (0)
GBRAP_160_4215 (protein) DEIVEKLVEIAREEFEEALELIEGESEEERRVILDVAVGNVILEASEIPGVTDEMEETVDRMSEELARELLEAAGESEEERRALIEERTEELRKELKKLA | false (0)

With those in mind, consider the next binder.
Q: Record GBRAP_11_2853 (protein) KKEKLKEIAELAEEAIKLLEELLKKGVDDEELQKKILEKLKELLELVKKYLDEADVKLAEYALESFEKSLKDPENAEEYVNEALAFLRVLLGNVLLEIDE ; criterion: median log2 fold change no lower than -0.1. Met?
Result: true (1)
